The following compounds are shown together with reported normalized growth values.
Test: chemical genetic growth profiling, strain panel (AID 1159580);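 note: tested at 20 µM; growth read once vehicle control cultures reached saturation at 30 °C; 1 = growth at the plate median or of vehicle wells; lower values mean less growth of the strain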
Settings: S. cerevisiae deletion strains, growth OD, locus YPR119W, strain clb2, hits give low values
In all, about 5,500 compounds went through this assay and about 2,000 (36%) were called active. Not shown: some 18% with an inconclusive outcome. Some of the results follow.
The reply should be a number, written without any unit.

{"columns": ["Compound", "Value measured"],
 "data": [
  ["C[C@@H](CO)NC(=O)C1C=C2c3cccc4[nH]cc(c34)C[C@H]2N(C)C1 (stereo partly specified)", 1],
  ["CO[C@@H]1[C@@H](OC(N)=O)[C@@H](O)[C@H](Oc2ccc3c(O)c(NC(=O)c4ccc(O)c(CC=C(C)C)c4)c(=O)oc3c2C)OC1(C)C", 1.01]
]}

Task: Quick one: normalized growth for COc1nc(NC(C)C)nc(NC(C)C)n1 ?
Result: 1.01

###

Assay: chemical genetic growth profiling, strain panel (AID 1159580);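 note: tested at 20 µM; growth read once vehicle control cultures reached saturation at 30 °C; 1 = growth at the plate median or of vehicle wells; lower values mean less growth of the strain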
Settings: S. cerevisiae deletion strains, growth OD, locus YOR106W, strain vam3
About 2,000 (36%) of roughly 5,500 compounds were called active. About 18% were inconclusive and are not listed. Cut-off read from the data, not from the text of the source: active = normalized growth mostly below about 0.91 (no sharp cut-off); inconclusive = no clear call, values can overlap the other calls; inactive = mostly above about 0.92. The list shows a part of the results.
The categories you may choose from are t for active, f for inactive

These solved cases illustrate the format of a correct answer.
{"columns": ["Molecule", "Discrete label"],
 "data": [
  ["Cc1ncc(CO)c(CO)c1O", "f"],
  ["Cc1ccc(-c2nc3ccc(C)cn3c2CC(=O)N(C)C)cc1", "f"],
  ["O=C(O)c1ccccc1O", "f"],
  ["O=C(Oc1cccc2cccnc12)c1ccccc1", "f"],
  ["C[C@@H]1CC[C@@]23CCC4(C)[C@@](C=CC5[C@@]6(C)CCC(=O)C(C)(C)C6CC[C@]54C)(OC2=O)C3[C@H]1C (some centres undefined)", "f"]
]}

Task: Answer briefly: the call reported for NC(=O)c1ccccc1O in this assay.
Result: f

Task: Please answer likewise for C[C@@H]1CC[C@@]23CCC4(C)[C@@](C=CC5[C@@]6(C)CC[C@H](O)C(C)(C)C6CC[C@]54C)(OC2=O)C3[C@H]1C (some centres undefined)
Result: f

###

Experiment: chemical genetic growth profiling, strain panel (AID 1159580);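 note: tested at 20 µM; growth read once vehicle control cultures reached saturation at 30 °C; 1 = growth at the plate median or of vehicle wells; lower values mean less growth of the strain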
Conditions: S. cerevisiae deletion strains, growth OD, locus YLR113W, strain HOG1, hits give low values
The whole screen tested about 5,500 compounds, of which about 2,000 (36%) were called active. Roughly 18% stayed inconclusive and do not appear here. The list shows a part of the results.
Property name: normalized growth
The reply should be a number, written without any unit.

Task: Quick one: normalized growth for CN(C)CC[C@H](c1ccc(Cl)cc1)c1ccccn1 ?
Result: 1.02

Task: Please answer likewise for O=C(CCCN1CCC2(CC1)C(=O)NCN2c1ccccc1)c1ccc(F)cc1
Result: 1.01

Task: Please answer likewise for O=S(=O)(O)O
Result: 0.992

Task: Please answer likewise for CO[C@H]1[C@@H](O)[C@@H](C)O[C@H](O[C@H]2CCC3(C)C4CCC5(C)[C@@H](C6=CC(=O)OC6)CC[C@]5(O)[C@@H]4CC[C@]3(O)C2)[C@@H]1O (stereo partly specified)
Result: 0.976

Task: Please answer likewise for NCCCC(O)(P(=O)(O)O)P(=O)(O)O
Result: 1

Task: Please answer likewise for C[C@H]1OC(O[C@H]2[C@@H](O)CC(O[C@H]3[C@@H](O)C[C@H](O[C@H]4CC[C@]5(C)C6CC[C@]7(C)[C@@H](C8=CC(=O)OC8)[C@@H](O)C[C@]7(O)[C@@H]6CC[C@@H]5C4)O[C@@H]3C)O[C@@H]2C)C[C@H](O)C1O (stereo partly specified)
Result: 0.975
